- assayed.system: T1, recombinant human TIGIT extra cellular domain (ECD) protein (human, UniProt Q495A1 22-138)
- T1 construct: Purchased protein; it begins with the signal peptide; also called h-TIGIT ECD; human TIGIT ECD
- T1 sequence: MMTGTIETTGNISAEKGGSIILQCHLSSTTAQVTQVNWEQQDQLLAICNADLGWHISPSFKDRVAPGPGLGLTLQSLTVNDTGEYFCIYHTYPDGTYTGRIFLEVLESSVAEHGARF
- test.description: ELISA, VHH in supernatant on h-TIGIT ECD coated plates

{"columns": ["binder", "binding result"],
 "data": [
  ["3H7 VHH (VHH, VHH in bacterial supernatant) VHH: QVKLEESGGGLVQAGGSLRLSCAASGSILSAGVMRWYRQAPGKQRELVASIALDGSTGYYIDSVKGRFTISRDNAKNIVYLDMRSLEPADTAVYLCNANIRTDMRSAPFDHWGHGTQVTVSS", "binds"],
  ["4D11 VHH (VHH, VHH in bacterial supernatant) VHH: QVQLQESGGGLVQPGGSLRLSCAASGSISSINAMGWYRLAPGKHREFVADITNSGSTNYAASVKGRFNISRDNAKDTVYLQMNSLKFEDTAVYYCTARRSTWYISSGRGTQVTVSS", "binds"],
  ["4C5 VHH (VHH, VHH in bacterial supernatant) VHH: QVQLVDSGGGLVQAGGSLRLSCAVSGRSVSTYFVGWFRQAPGKEREFVAAIDRGSTVTRYDDSVKGRFTISRDNAKDTVYLQMNSLKPEDTAVYYCAAKAITRNFIATNDYDYWGQGTQVTVSS", "binds"]
]}
